The origin of these recorded values is patent US6949648B2.

The reader will find reported melting point values listed item by item below.

Cc1nn(-c2ccccn2)c2nc3ccc(Cl)cc3c(Cl)c12 ... 233 to 235 °C
Cc1ccc(-n2nc(C)c3c(N)c4cccc(C)c4nc32)nc1 ... 257 to 260 °C
Cc1cccc2c(N)c3c(C)nn(-c4ccc5ccccc5n4)c3nc12 ... 273 to 276 °C
Cc1nn(-c2ccccn2)c2[nH]c3cc(N)ccc3c(=O)c12 ... 284 to 286 °C

Recorded melting point of `Cc1nn(-c2ccccn2)c2[nH]c3cccc(Cl)c3c(=O)c12` , please. 212 to 213 °C

Recorded melting point of `CCOC(=O)c1cnc2c(cnn2-c2ccccn2)c1O` , please. 195 to 197 °C

Recorded melting point of `Cc1nn(-c2ccccn2)c2ncc(C(=O)c3ccccc3)c(O)c12` , please. 224 to 226 °C

Recorded melting point of `Cc1nn(-c2ccccn2)c2[nH]c3ccc(F)cc3c(=O)c12` , please. 278 to 280 °C

Recorded melting point of `Cc1nn(-c2ccccn2)c2nc3ccccc3c(NC3CC3)c12.Cl` , please. 208 to 211 °C

---

Endpoint label: melting point

Examples with answers:
CCCCNc1c2ccccc2nc2c1c(C)nn2-c1ccccn1 [Example 2-7] ... 97 to 99 °C
Cc1nn(-c2ccccn2)c2[nH]c3ccc(N)cc3c(=O)c12 [Example 2-55] ... 260 to 262 °C

Recorded melting point of Cc1nn(-c2ccccn2)c2nc3ccccc3c(SC(C)C)c12 [Example 2-25] , please. 113 to 114 °C

Recorded melting point of Cc1nn(-c2ccccn2)c2nc3cc(F)c(F)cc3c(Cl)c12 [Example 2-90] , please. 175 to 176 °C

Recorded melting point of CC(C)c1nn(-c2ccccn2)c2[nH]c3ccccc3c(=O)c12 [Example 2-173] , please. 143 to 144 °C

Recorded melting point of Cc1ccc2nc3c(c(C)nn3-c3ccccn3)c(Cl)c2c1 [Example 2-32] , please. 158 to 160 °C

Recorded melting point of COc1c2ccccc2nc2c1c(C)nn2Cc1ccccn1 [Example 2-190] , please. 111 to 113 °C

Recorded melting point of CSc1ccc2[nH]c3c(c(C)nn3-c3ccccn3)c(=O)c2c1 [Example 1-50] , please. 182 to 185 °C

Recorded melting point of Cc1nn(-c2ccccn2)c2nc3ccc(Cl)cc3c(N)c12 [Example 2-71] , please. 289 to 292 °C

---

Counter-ions that a name gives are not always drawn.
Endpoint label: melting point

O=c1c2cc(F)ccc2[nH]c2c1cnn2-c1ccccn1 (as salt: salt) ... 263 to 266 °C
Cc1nn(-c2ccccn2)c2ncc(C(=O)Nc3ccccc3F)c(O)c12 ... > 300 °C
O=c1c2cc(F)c(F)cc2[nH]c2c1cnn2-c1ccccn1 ... > 300 °C
CCOc1cccc(-n2nc(C)c3c(=O)c4cccc(C)c4[nH]c32)n1 ... 239 to 241 °C

Kindly consider the entry below.
Recorded melting point of `Cc1nn(-c2ncccn2)c2nc3ccccc3c(Cl)c12` , please. 257 to 260 °C

---

Test system: yeast-induced pyrexia
Assay: Antipyretic activity in yeast-induced pyrexia
Format: in vivo, SD rats
Conditions: 10 mg/kg orally; maximum difference in body temperature vs control over 6 hours
Marks after values point to notes of the source that are not given here.
Endpoint label: Δ (° C.) Dosage 10 mg/kg

Examples with answers:
CCCOc1c2ccccc2nc2c1c(C)nn2-c1ccccn1 ... 1.5** ° C.
Cc1nn(-c2ccccn2)c2nc3ccccc3c(OC(C)C)c12 ... 1.7** ° C.
Cc1nn(-c2ccccn2)c2[nH]c3cc(F)c(F)cc3c(=O)c12 ... 1.5** ° C.

Kindly consider the entry below.
Recorded Δ (° C.) Dosage 10 mg/kg of `O=c1c2ccccc2[nH]c2c1cnn2-c1ccccn1` , please. 1.8** ° C.
